Measured values drawn from patent US20090062401A1 for this set.

target: PP1; assay: PP1 phosphatase inhibition, general phosphatase assay using para-nitrophenylphosphate; conditions: read-out: IC50 Target PP1
pIC50: −log10 of the molar value.
Parameter: pIC50. Scope: all listed entries.
reportedMetric: pIC50

molecule | targetDesc | result
CC1=C2CC/C(=C\c3ccco3)C(=O)[C@@]2(C)CCC1O (stereo partly drawn) | PP1 | 4.30 to 5.00
CC1=C2CCCC(O)C2(C)CC(=Cc2ccc(C#CCCCC#N)cc2)C1=O (stereo not drawn) | PP1 | > 5.00
CCCCCCCCCCC#Cc1ccc(/C=C2\C[C@@]3(C)C(=C(C)C2=O)CCC[C@@H]3O)cc1 | PP1 | > 5.00
CC1=C2CCC[C@H](O)[C@@]2(C)C/C(=C\c2ccc(C#Cc3cccc(F)c3)cc2)C1=O | PP1 | > 5.00
C/C=C1\CC[C@@]2(C)C(=C1C)CCC[C@@H]2O | PP1 | 4.30 to 5.00
CC1=C2CCC[C@H](O)[C@@]2(C)C/C(=C\c2cc(Cl)cs2)C1=O | PP1 | 4.30 to 5.00
CC1(CCCc2ccccc2)C(=O)CC[C@@]2(C)C1CCC[C@@H]2O (stereo partly drawn) | PP1 | 4.30 to 5.00
CC1=C2CCC[C@H](O)[C@@]2(C)C/C(=C\c2cc3ccccc3o2)C1=O | PP1 | 4.30 to 5.00
CC1=C2CCC[C@H](O)[C@@]2(C)C/C(=C\c2ccc([N+](=O)[O-])cc2)C1=O | PP1 | 4.30 to 5.00
CCC/C=C1\C[C@@]2(C)C(=C(C)C1=O)CCC[C@@H]2O | PP1 | 4.30 to 5.00
CC1=C2CCC[C@H](O)[C@@]2(C)C/C(=C\c2ccc(C#C[Si](C)(C)C)cc2)C1=O | PP1 | 4.30 to 5.00
CC(=O)Oc1cccc(/C=C2\C[C@@]3(C)C(=C(C)C2=O)CCC[C@@H]3O)c1 | PP1 | 4.30 to 5.00

* * *

target: VHR (Homo sapiens)
Sequence (P51452 whole entry, species assumed): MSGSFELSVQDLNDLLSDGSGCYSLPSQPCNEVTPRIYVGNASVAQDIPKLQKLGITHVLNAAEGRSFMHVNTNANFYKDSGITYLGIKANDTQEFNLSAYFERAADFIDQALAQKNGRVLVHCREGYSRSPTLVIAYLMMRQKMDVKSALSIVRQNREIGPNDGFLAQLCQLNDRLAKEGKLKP
pIC50: −log10 of the molar value.
Listed molecules paired with reported pIC50
reportedMetric: pIC50

molecule | reportedMetric | result
CCCCCCCCCCCCCCC#Cc1ccc(/C=C2\C[C@@]3(Cc4ccccc4)C(=C(C)C2=O)CCC[C@@H]3O)cc1 | pIC50 | 4.30 to 5.00
CC1=C(/C=C2\C[C@@]3(C)C(CCC[C@@H]3O)C(C)C2=O)NCC1 (some centres unmarked) | pIC50 | 4.30 to 5.00
CC1=C2CCC[C@H](O)[C@@]2(C)CCC1=O | pIC50 | 4.30 to 5.00
CC1=C2CCC[C@H](O)[C@@]2(C)C/C(=C\c2ccc(O)c(O)c2O)C1=O | pIC50 | 4.30 to 5.00
CC1=C2CCC[C@H](O)[C@@]2(C)C/C(=C\c2cccs2)C1=O | pIC50 | 4.30 to 5.00
CC1(Cc2cccc(I)c2)C(=O)CC[C@@]2(C)C1CCC[C@@H]2O (some centres unmarked) | pIC50 | 4.30 to 5.00
CCCCCCCCCCCCCCC#Cc1ccc(/C=C2\C[C@@]3(C)C(CCC[C@@H]3O)C(C)C2=O)cc1 (some centres unmarked) | pIC50 | 4.30 to 5.00
CCCCC#Cc1ccc(/C=C2\C[C@@]3(C)C(=C(C)C2=O)CCC[C@@H]3O)cc1 | pIC50 | 4.30 to 5.00

* * *

Listed next: entries and their corresponding IC50.
biological target: Cdc25A (Homo sapiens); assay: Cdc25A phosphatase inhibition; assay type: biochemical
Sequence (P30304 whole entry): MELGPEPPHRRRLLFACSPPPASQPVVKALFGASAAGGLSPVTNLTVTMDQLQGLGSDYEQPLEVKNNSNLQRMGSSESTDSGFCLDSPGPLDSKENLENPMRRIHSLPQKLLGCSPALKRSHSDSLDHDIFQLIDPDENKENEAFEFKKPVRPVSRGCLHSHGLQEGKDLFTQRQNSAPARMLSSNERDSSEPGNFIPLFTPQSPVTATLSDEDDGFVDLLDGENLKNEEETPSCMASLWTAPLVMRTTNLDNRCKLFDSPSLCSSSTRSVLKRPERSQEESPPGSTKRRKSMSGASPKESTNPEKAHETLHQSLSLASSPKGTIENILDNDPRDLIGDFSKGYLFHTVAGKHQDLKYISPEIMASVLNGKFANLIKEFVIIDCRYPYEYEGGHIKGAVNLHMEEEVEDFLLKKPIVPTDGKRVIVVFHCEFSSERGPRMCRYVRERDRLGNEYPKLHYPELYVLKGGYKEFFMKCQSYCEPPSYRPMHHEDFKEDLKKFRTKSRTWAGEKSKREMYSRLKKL
reportedMetric: IC50

compound | reportedMetric | result
CC1=C2CCC[C@H](O)[C@@]2(C)C/C(=C\c2ccc(C#C[Si](C)(C)C)cc2)C1=O [Compound 53] | IC50 | 10 to 50 µM
C[C@]12C/C(=C\c3ccc(C#C[Si](C)(C)C)cc3)C(=O)C=C1CCC[C@@H]2O [Compound 137] | IC50 | < 10 µM
